Record form. Attribute: IC50. Fill in for each entry.
# TARGET OF ASSAY: CB1 receptor (Homo sapiens)
# Construct: expressed in transfected cells
# EXPERIMENT DESCRIPTION: Binding assay for CB1 agonists or inverse agonists (SK-N-MC membranes, [3H]-CP-55,940)
# APPLIED CONDITIONS: calculated by linear regression from percent inhibition at various test concentrations; read-out: Cannabinoid CB1 Receptor Binding IC50
# Description: The human CB1 and CB2 receptors were stably expressed in SK-N-MC cells transfected with pcDNA3 CB-1 (human) or pcDNA3 CB-2 (human). […] On the day of the assay, the pellet was thawed on ice and diluted in assay buffer (50 mM Tris-HCl, 5 mM MgCl2, 2.5 mM EDTA, 0.5 mg/mL fatty acid free bovine serum aldumin, pH 7.5). […] Non-specific binding was measured in wells containing WIN 55,212 (10 uM). […]
Field format: number, assumed nM, no unit text.

(Q) Report IC50 for COC(=O)[C@@H](Cc1ccc(O)cc1)NC(=O)c1nn(C2CCCCC2)c2c1CCCCC2Cc1cccc(F)c1 (stereo partly shown) please.
(A) 1000

(Q) Report IC50 for C[C@H](NC(=O)c1nn(C2CCCCC2)c2c1CCCCC2Cc1cccc(F)c1)c1ccccc1 (stereo partly shown) please.
(A) 700

(Q) Report IC50 for CC12CCC(C1)C(C)(C)[C@H]2NC(=O)c1nn(C2CCCCC2)c2c1CCCCC2Cc1ccc(F)cc1 (stereo partly shown) please.
(A) 200

(Q) Report IC50 for C[C@H](NC(=O)c1nn(C2CCCCC2)c2c1CCCCC2Cc1cccc(Cl)c1)c1ccccc1 (stereo partly shown) please.
(A) 1100

###

# TARGET OF ASSAY: CB1 receptor (Homo sapiens, UniProt P21554)
# Construct: expressed in transfected cells
# Sequence (P21554 whole entry): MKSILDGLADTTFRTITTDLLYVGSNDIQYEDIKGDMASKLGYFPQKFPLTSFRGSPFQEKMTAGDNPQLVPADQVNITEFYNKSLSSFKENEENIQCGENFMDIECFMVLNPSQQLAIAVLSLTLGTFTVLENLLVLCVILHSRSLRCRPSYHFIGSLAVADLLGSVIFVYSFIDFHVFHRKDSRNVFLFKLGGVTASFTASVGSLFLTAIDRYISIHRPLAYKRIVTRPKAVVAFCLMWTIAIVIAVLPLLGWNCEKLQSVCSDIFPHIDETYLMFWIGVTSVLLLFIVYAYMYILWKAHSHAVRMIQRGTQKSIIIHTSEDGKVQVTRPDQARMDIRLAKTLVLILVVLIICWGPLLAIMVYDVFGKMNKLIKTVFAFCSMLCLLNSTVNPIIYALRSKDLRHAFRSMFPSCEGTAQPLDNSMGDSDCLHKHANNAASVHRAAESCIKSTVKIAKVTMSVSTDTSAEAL
# EXPERIMENT DESCRIPTION: Binding assay for CB1 agonists or inverse agonists (SK-N-MC membranes, [3H]-CP-55,940)
# APPLIED CONDITIONS: read-out: CB1 receptor binding percent inhibition, test concentration 1 μM (footnote 1)
QUANTITY MEASURED: inhibition at 1 µM (%)
Field format: number, assumed %, no unit text.

(Q) Report inhibition at 1 µM for O=C(NC1CCCCC1)c1nn(C2CCCCC2)c2c1CCCCC2Cc1cccc(F)c1 (centres unmarked) [Cpd 51] please.
(A) 36

(Q) Report inhibition at 1 µM for CC12CCC(C1)C(C)(C)[C@H]2NC(=O)c1nn(C2CCCCC2)c2c1CCCCC2Cc1ccccc1Cl (some centres unmarked) [Cpd 11] please.
(A) 17

(Q) Report inhibition at 1 µM for O=C(NC1CC1)c1nn(C2CCCCC2)c2c1CCCCC2Cc1cccc(Cl)c1 (centres unmarked) [Cpd 32] please.
(A) 0

(Q) Report inhibition at 1 µM for O=C(NC1C2CC3CC(C2)CC1C3)c1nn(C2CCCCC2)c2c1CCCCC2Cc1cccc(Cl)c1 (centres unmarked) [Cpd 12] please.
(A) 36

(Q) Report inhibition at 1 µM for COC(=O)[C@@H](Cc1ccc(F)cc1)NC(=O)c1nn(-c2ccc(Cl)cc2Cl)c2c1CCCC[C@@H]2Cc1cccc(F)c1 [Cpd 77] please.
(A) 44

(Q) Report inhibition at 1 µM for Cn1nc(/C=C/S(=O)(=O)NN2CCOCC2)c2c1C(Cc1cccc(F)c1)CCCC2 (centres unmarked) [Cpd 125] please.
(A) 0

(Q) Report inhibition at 1 µM for O=C(NCc1ccc(C(F)(F)F)cc1)c1nn(C2CCCCC2)c2c1CCCCC2Cc1ccc(F)cc1 (centres unmarked) [Cpd 65] please.
(A) 29

(Q) Report inhibition at 1 µM for Cn1nc(C(=O)N[C@H]2C3(C)CCC(C3)C2(C)C)c2c1C(Cc1ccccc1Cl)CCCC2 (some centres unmarked) [Cpd 40] please.
(A) 84

###

# TARGET OF ASSAY: CB1 receptor (Homo sapiens)
# Construct: expressed in transfected cells
# EXPERIMENT DESCRIPTION: Binding assay for CB1 agonists or inverse agonists (SK-N-MC membranes, [3H]-CP-55,940)
# APPLIED CONDITIONS: Cannabinoid CB1 Receptor Binding IC50, calculated by linear regression from percent inhibition at various test concentrations
# Experimental: The human CB1 and CB2 receptors were stably expressed in SK-N-MC cells transfected with pcDNA3 CB-1 (human) or pcDNA3 CB-2 (human). […] On the day of the assay, the pellet was thawed on ice and diluted in assay buffer (50 mM Tris-HCl, 5 mM MgCl2, 2.5 mM EDTA, 0.5 mg/mL fatty acid free bovine serum aldumin, pH 7.5). […] Non-specific binding was measured in wells containing WIN 55,212 (10 uM). […]
QUANTITY MEASURED: IC50
# number then unit; no other words

(Q) Report IC50 for O=C(N[C@H](CO)c1ccccc1)c1n[nH]c2c1CCCCC2Cc1cccc(Cl)c1 (single isomer, unassigned) [Cpd 230] please.
(A) 0.3 µM

(Q) Report IC50 for C[C@@H](NC(=O)c1n[nH]c2c1CCCC/C2=C\c1ccc(Cl)cc1)c1ccccc1 [Cpd 142] please.
(A) 0.01 µM

(Q) Report IC50 for COC(=O)[C@H](Cc1ccc(F)cc1)NC(=O)c1nn(C)c2c1CCCC/C2=C\c1cccc(F)c1 [Cpd 241] please.
(A) 0.2 µM

(Q) Report IC50 for O=C(NC1CCC1)c1nn(-c2ccc(Cl)cc2Cl)c2c1CCCCC2Cc1cccc(F)c1 (centres unmarked) [Cpd 41] please.
(A) 0.5 µM

(Q) Report IC50 for O=C(NN1CCOCC1)c1nn(-c2ccc(Cl)cc2Cl)c2c1CCCCC2Cc1cccc(F)c1 (centres unmarked) [Cpd 91] please.
(A) 0.3 µM

(Q) Report IC50 for COc1ccc(/C=C2\CCCCc3c(C(=O)NN4CC5CCCC5C4)nn(-c4ccc(Cl)cc4Cl)c32)cc1 (centres unmarked) [Cpd 226] please.
(A) 0.04 µM

(Q) Report IC50 for C[C@@H](NC(=O)c1nn(-c2ccc(Cl)cc2Cl)c2c1CCCC/C2=C\c1ccc(Cl)cc1)c1ccccc1 [Cpd 131] please.
(A) 0.006 µM

(Q) Report IC50 for C[C@@H](NC(=O)c1n[nH]c2c1CCCC/C2=C\c1ccc(Cl)cc1)C1CCCCC1 [Cpd 140] please.
(A) 0.006 µM

(Q) Report IC50 for COc1ccc(/C=C2\CCCCc3c(C(=O)N[C@H](CO)c4ccccc4)nn(-c4ccc(Cl)cc4Cl)c32)cc1 [Cpd 215] please.
(A) 0.01 µM

(Q) Report IC50 for C[C@@H](NC(=O)c1nn(-c2ccccc2Cl)c2c1CCCC/C2=C\c1ccc(Cl)cc1)c1ccccc1 [Cpd 190] please.
(A) 0.08 µM

(Q) Report IC50 for C[C@H](NC(=O)c1n[nH]c2c1CCCC/C2=C\c1ccc(Cl)cc1)C1CCCCC1 [Cpd 143] please.
(A) 0.002 µM

(Q) Report IC50 for O=C(N[C@@H]1c2ccccc2C[C@@H]1O)c1nn(C2CCCCC2)c2c1CCCCC2Cc1ccc(F)cc1 (relative stereo) [Cpd 121] please.
(A) 0.4 µM

(Q) Report IC50 for O=C(NCCc1ccccn1)c1nn(-c2ccc(Cl)cc2Cl)c2c1CCCC/C2=C\c1ccc(Cl)cc1 [Cpd 157] please.
(A) 0.1 µM

(Q) Report IC50 for C[C@H](NC(=O)c1nn(-c2cc(Cl)ccc2Cl)c2c1CCCC/C2=C\c1ccc(Cl)cc1)C1CCCCC1 [Cpd 197] please.
(A) 0.03 µM

(Q) Report IC50 for O=C(NN1CCCCC1)c1nn(-c2ccc(Cl)cc2Cl)c2c1CCCCC2Cc1cccc(Cl)c1 (centres unmarked) [Cpd 28] please.
(A) 0.1 µM

(Q) Report IC50 for C[C@H](NC(=O)c1nn(-c2ccc(Cl)cc2Cl)c2c1CCCC/C2=C\c1ccc(F)cc1)c1ccccc1 [Cpd 149] please.
(A) 0.1 µM

(Q) Report IC50 for COC(=O)[C@@H](Cc1ccc(O)cc1)NC(=O)c1nn(-c2ccc(Cl)cc2Cl)c2c1CCCCC2Cc1cccc(Cl)c1 (some centres unmarked) [Cpd 102] please.
(A) 0.6 µM

(Q) Report IC50 for C[C@@H](NC(=O)c1nn(-c2ccc(S(N)(=O)=O)cc2)c2c1CCCC/C2=C\c1ccc(Cl)cc1)C1CCCCC1 [Cpd 185] please.
(A) 0.03 µM

(Q) Report IC50 for COc1ccc(/C=C2\CCCCc3c(C(=O)N[C@@H](C)c4ccccc4)nn(-c4ccc(Cl)cc4Cl)c32)cc1 [Cpd 213] please.
(A) 0.06 µM

(Q) Report IC50 for O=C(c1nn(-c2ccc(Cl)cc2Cl)c2c1CCCC/C2=C\c1ccc(F)cc1)N1CCCCC1c1ccccn1 (centres unmarked) [Cpd 206] please.
(A) 0.08 µM

(Q) Report IC50 for COc1ccc(/C=C2\CCCCc3c(C(=O)N[C@H](C)c4ccccn4)nn(-c4ccc(Cl)cc4Cl)c32)cc1 [Cpd 227] please.
(A) 0.009 µM

(Q) Report IC50 for CC(C)(NC(=O)c1nn(-c2ccc(Cl)cc2Cl)c2c1CCCC/C2=C\c1ccc(F)cc1)c1ccccc1 [Cpd 205] please.
(A) 0.02 µM

(Q) Report IC50 for Cn1nc(C(=O)N[C@H]2C3(C)CCC(C3)C2(C)C)c2c1C(Cc1ccccc1Cl)CCCC2 (some centres unmarked) [Cpd 40] please.
(A) 0.07 µM

(Q) Report IC50 for O=C(NC1CCCc2ccccc21)c1nn(-c2ccc(Cl)cc2Cl)c2c1CCCC/C2=C\c1ccc(F)cc1 (centres unmarked) [Cpd 209] please.
(A) 0.03 µM

(Q) Report IC50 for O=C(N[C@@H]1c2ccccc2C[C@@H]1O)c1nn(C2CCCCC2)c2c1CCCCC2Cc1cccc(F)c1 (single isomer, unassigned) [Cpd 115] please.
(A) 0.5 µM

(Q) Report IC50 for O=C(N[C@@H](CO)c1ccccc1)c1n[nH]c2c1CCCC/C2=C\c1cccc(Cl)c1 [Cpd 239] please.
(A) 0.03 µM
